Each record here notes measured variant/HC_D62R.
target_entity: T1, mouse tissue factor pathway inhibitor (TFPI) (mouse, UniProt O54819 29-289, limits assumed)
T1 construct: bought; also called mTFPI; murine TFPI
T1 sequence (looked up): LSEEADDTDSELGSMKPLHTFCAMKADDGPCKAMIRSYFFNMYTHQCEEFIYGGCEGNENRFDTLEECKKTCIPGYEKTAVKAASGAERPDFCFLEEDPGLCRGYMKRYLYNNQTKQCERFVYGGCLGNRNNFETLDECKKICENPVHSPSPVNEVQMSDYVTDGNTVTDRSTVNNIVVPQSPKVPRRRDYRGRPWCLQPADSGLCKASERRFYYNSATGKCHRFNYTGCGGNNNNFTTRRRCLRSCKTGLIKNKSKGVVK
experiment: competitive ELISA
Dear colleague, please return just the value in ratio, with no unit written.

Q: Find the recorded variant/HC_D62R belonging to 4B7 HC Q1E+N32D+G44S+K55Y+D62R+Y112D/LC V30L+S32R+N35I+T36N (Fab, V domains shown) VH: EVQLQQSGPGLVKPSQTLSLTCAISGDSVSSDSAAWSWIRQSPSRGLEWLGIIYYRSKWYNRYAVSVKSRITINPDTSKNQFSLQLNSVTPEDTAVYYCARWHSDKHWGFDDWGQGTLVTVSS VL: DIVMTQSPLSLPVTPGEPASISCRSSQSLLFRDGINYLNWYLQKPGQSPQLLIYKGSNRASGVPDRFSGSGSGTDFTLKISRVEAEDVGVYYCQQYDSYPLTFGQGTKVEIKR and report it.
A: 9.9

Q: Find the recorded variant/HC_D62R belonging to 4B7 HC N32D+D62R+Y112D/LC S32R+D33F+N35I+L42Q+D97T (Fab, V domains shown) VH: QVQLQQSGPGLVKPSQTLSLTCAISGDSVSSDSAAWSWIRQSPGRGLEWLGIIYKRSKWYNRYAVSVKSRITINPDTSKNQFSLQLNSVTPEDTAVYYCARWHSDKHWGFDDWGQGTLVTVSS VL: DIVMTQSPLSLPVTPGEPASISCRSSQSLVFRFGITYLNWYQQKPGQSPQLLIYKGSNRASGVPDRFSGSGSGTDFTLKISRVEAEDVGVYYCQQYTSYPLTFGQGTKVEIKR and report it.
A: 43

Taken from patent USRE47150.
